Target: 5-lipoxygenase (Rattus norvegicus)
Construct: A suspension of rat neutrophils in buffer; endogenous in cells; host or cells: rat neutrophils (PMN)
Test: Protocol for detecting inhibitors of the lipoxygenase pathway (5-HETE formation in rat neutrophils)
Assay type: cell-based
Details: rat PMN, [14C]-arachidonic acid + A23187, 5-HETE; read-out: LOX, (RAT PMN) I50
Experimental: Protocol for Detecting Inhibitors of the Lipoxygenase Pathway A suspension of rat neutrophils in buffer is incubated for 3 minutes at 30° C. with [^14 C]-arachidonic acid (AA) and Calcium Ionophore A23187. […] After adjusting for the extraction efficiency, the amount (pmole) of [^14 C]-5-HETE in each of the tubes is quantitated. […] The ability of the test compounds to modulate the activity of this enzyme is determined by a decrease or increase in the net amount of 5-HETE produced.
pIC50: −log10 of the molar value.
Readout Label: pIC50

// known answers, use as guide
{"Compound": "CCOC(=O)C=CC=Cc1cn(Cc2ccccc2)c2ccc(OC)cc12", "Readout Label": "pIC50", "Value Observed": 5.40}
{"Compound": "CCC(=CC=Cc1cn(Cc2ccccc2)c2ccccc12)C(=O)O", "Readout Label": "pIC50", "Value Observed": 5.64}
{"Compound": "CCOC(=O)C=CC=Cc1cc2cc(OC)ccc2[nH]1", "Readout Label": "pIC50", "Value Observed": 5.00}
{"Compound": "O=C(O)C=CC=Cc1cn(Cc2ccccc2)c2ccc(OCc3ccccc3)cc12", "Readout Label": "pIC50", "Value Observed": 5.70}
{"Compound": "CCOC(=O)c1ccc(NC(=O)C=CC=Cc2cn(Cc3ccccc3)c3ccccc23)cc1", "Readout Label": "pIC50", "Value Observed": 5.70}

(1) OCC=Cc1cn(Cc2ccccc2)c2ccccc12
(2) CCOC(=O)C=CC=Cc1c[nH]c2ccccc12 [Example 10, Ethyl 5-(indol-3-yl)-2,4-Pentadienoate]
For the pair 1 and 2 , which entry has the numerically smaller recorded pIC50? Returns: label corresponding to the selected item.
2
(2: 4.92, 1: 5.12)

---

biological target: cyclooxygenase; assay: Production of TXB2 and PGF2 α in rat peritoneal leukocyte homogenate (cyclooxygenase); conditions: read-out: Cyclox, I50
Readout Label: IC50 (µM)
Give just the numeric value; µM need not be written.

Return IC50 (reported value) for this compound: CCC(=CC=Cc1cn(Cc2ccccc2)c2ccccc12)C(=O)O [Example 9]
15

---

biological target: Phospholipase A2 (PLA2) (Rattus norvegicus, UniProt P14423); construct: obtained by aggregation of purified rat platelets; from tissue; host or cells: rat platelets (enzyme obtained by aggregation); experiment: In vitro assay for inhibitors of Phospholipase A2 (PLA2) from rat platelets; assay type: biochemical
Sequence (P14423 22-146): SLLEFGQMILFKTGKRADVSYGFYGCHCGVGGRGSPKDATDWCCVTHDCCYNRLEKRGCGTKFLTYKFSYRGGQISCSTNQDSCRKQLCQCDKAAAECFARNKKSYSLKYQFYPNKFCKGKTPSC
Readout Label: IC50 (µM)
Give just the numeric value; µM need not be written.

Return IC50 (reported value) for this compound: "O=C(O)C=CC=Cc1cn(Cc2ccccc2)c2ccccc12"
16

---

molecular target: Phospholipase A2 (PLA2) (Rattus norvegicus); construct: obtained by aggregation of purified rat platelets; from tissue; host or cells: rat platelets (enzyme obtained by aggregation); assay: In vitro assay for inhibitors of Phospholipase A2 (PLA2) from rat platelets; type: biochemical; conditions: pH 7.2, 37° C.; read-out: PLA2, I50
Readout Label: pIC50
# pIC50 = -log10(concentration in molar units)

{"Compound String": "CCC(=CC=Cc1cn(Cc2ccccc2)c2ccccc12)C(=O)O", "Measurement Target": "Phospholipase A2 (PLA2) (Rattus norvegicus)", "pIC50": 4.33}

// moving on: another record for pIC50
Return pIC50 (reported value) for this compound: "Cc1c(C=CC=CC(=O)O)c2ccccc2n1Cc1ccccc1"
4.43

---

Target: 5-lipoxygenase (Rattus norvegicus, UniProt P12527)
Construct: A suspension of rat neutrophils in buffer; endogenous in cells; host or cells: rat neutrophils (PMN)
Sequence (P12527 1-673): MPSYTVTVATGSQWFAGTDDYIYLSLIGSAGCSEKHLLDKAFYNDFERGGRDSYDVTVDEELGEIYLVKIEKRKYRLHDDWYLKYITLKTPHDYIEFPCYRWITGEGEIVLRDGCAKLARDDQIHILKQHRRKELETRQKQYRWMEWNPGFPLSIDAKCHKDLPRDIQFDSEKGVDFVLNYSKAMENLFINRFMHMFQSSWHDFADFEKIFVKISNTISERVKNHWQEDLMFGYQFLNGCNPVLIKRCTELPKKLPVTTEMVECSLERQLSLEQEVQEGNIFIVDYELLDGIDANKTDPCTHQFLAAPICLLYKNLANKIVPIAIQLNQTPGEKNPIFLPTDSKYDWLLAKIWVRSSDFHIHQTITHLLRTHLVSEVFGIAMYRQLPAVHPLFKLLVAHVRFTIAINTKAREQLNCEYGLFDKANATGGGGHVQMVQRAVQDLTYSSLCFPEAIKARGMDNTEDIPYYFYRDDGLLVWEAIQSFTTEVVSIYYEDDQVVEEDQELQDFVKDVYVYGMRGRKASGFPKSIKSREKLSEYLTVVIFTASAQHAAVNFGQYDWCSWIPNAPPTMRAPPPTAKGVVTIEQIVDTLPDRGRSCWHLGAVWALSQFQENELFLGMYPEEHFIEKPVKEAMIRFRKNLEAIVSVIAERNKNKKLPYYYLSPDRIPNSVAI
Assay: Protocol for detecting inhibitors of the lipoxygenase pathway (5-HETE formation in rat neutrophils)
Assay type: cell-based
Conditions: Formula III, n=1 compounds; read-out: LOX I50 (Table 5)
Readout Label: IC50 (µM)
Give just the numeric value; µM need not be written.

{"Molecule": "CCOC(=O)C=Cc1c[nH]c2ccccc12 [Ethyl β-(indol-3-yl)acrylate, reference compound]", "IC50 [µM]": 8}

// moving on: another record for IC50
Return IC50 (reported value) for this molecule: "CCOC(=O)C=Cc1c(C)n(Cc2ccccc2)c2ccccc12"
1

---

target: 5-lipoxygenase (Rattus norvegicus, UniProt P12527); construct: A suspension of rat neutrophils in buffer; endogenous in cells; host or cells: rat neutrophils (PMN); experiment: Protocol for detecting inhibitors of the lipoxygenase pathway (5-HETE formation in rat neutrophils); type: cell-based; details: rat PMN, [14C]-arachidonic acid + A23187, 5-HETE; read-out: LOX, (RAT PMN) I50
pIC50: −log10 of the molar value.
Readout Label: pIC50

{"Molecule": "O=C(O)C=CC=Cc1cn(Cc2ccccc2)c2ccccc12 [Example 2]", "pIC50": 5.70}
{"Molecule": "CCOC(=O)C=CC=Cc1cn(Cc2ccccc2)c2ccccc12 [Example 1]", "pIC50": 5.00}
{"Molecule": "CCOC(=O)C=CC=Cc1cc2cc(OC)ccc2n1C(=O)c1ccc(Cl)cc1 [Example 17]", "pIC50": 5.00}
{"Molecule": "COc1ccc2c(c1)c(C=CC=CC(=O)O)cn2Cc1ccccc1 [Example 7]", "pIC50": 5.22}
{"Molecule": "CCOC(=O)C=CC=Cc1c(C)n(Cc2ccccc2)c2ccccc12 [Example 11]", "pIC50": 4.82}
